tested on: Trypanosoma brucei; test: Trypanosoma brucei 72 hour study; format: functional, organism-based; parameters: scale not given: in the data most compounds retested in dose-response had high values; details: 30.3 µM; […]
Out of some 66,000 compounds screened, about 960 (1.5%) showed an effect of 50% or more. The list comes from a sample in which strong results are over-represented; it also holds close analogues and randomly drawn compounds.

compound | Percent Effect (%)
CNC(=O)[C@@H]1C[C@@H](N)CN1C1CCN(c2ccccc2F)CC1 | 11.28
CN(C)C1COC2(CCN(Cc3ccc4c(c3)OCO4)CC2)C1.O=C(O)C(F)(F)F.O=C(O)C(F)(F)F (stereo not given) | 39.28
Cc1ccccc1C(O)CNS(=O)(=O)Cc1cccc(C#N)c1 (stereo not given) | 7.529
CCCC(N)CNS(=O)(=O)Cc1cccc(C#N)c1.Cl (stereo not given) | 63.71
Cc1csc2nc3n(c(=O)c12)CCN(Cc1ccccn1)CC3.Cl | -40.83
Cc1cccc(C(=O)N2CC[C@]3(C[C@H](OCc4ccccn4)CO3)C2)c1.O=C(O)C(F)(F)F | -74.39
CNC(=O)CN1CC[C@H]2CN(C(=O)c3ccoc3)C[C@H]2C1.O=C(O)C(F)(F)F | -45.09
CN1CCN(c2ncnc3c2CCN(S(=O)(=O)C2CC2)CC3)CC1.O=C(O)C(F)(F)F | -13.78
CCNC(=O)[C@@H]1C[C@H](N)CN1C1CCN(c2ccccc2OC)CC1 | 99.36
OCC1(Cc2ccc(Cl)cc2)CCN(Cc2ccccc2O)CC1 | -146.1
